- testedTarget: enzymatically active free PSA (Homo sapiens)
- Construct: 50% cleavage of the noted oligopeptide-cytotoxic agent conjugates with enzymatically active free PSA; purchased York
- protocol: Recognition/cleavage of oligopeptide-vinca drug conjugates by free PSA (HPLC)
- Type: biochemical
- conditionDetails: conjugate:PSA molar ratio 100 to 1; pH 7.4; acetate salt unless otherwise indicated; n > 1 value is an average
Catalogue of Time to 50% Substrate Cleavage by York PSA values
measurementName: Time to 50% Substrate Cleavage by York PSA

substance: 4-des-Acetylvinblastine-23-(N-Acetyl-Ser-Chg-Gln-Ser-Ser-Pro-HCAP) Amide Acetate Salt (SXQSSX; non-natural residues; cyclised or stapled) [Ac-SChgQ-SSP-(HCAP)-VIN]
measured: 8 min
--
substance: Ac-SChgQ-SS(4-trans-L-Hyp)-(HCAP)-dAc-VIN (XXQSSX; non-natural residues; cyclised or stapled)
measured: 7 min
--
substance: Ac-4-trans-L-Hyp-SSChgQ-SS-(HCAP)-(dAc)-VIN (XSSXQSS; non-natural residues; cyclised or stapled)
measured: 17 min
--
substance: Ac-4-trans-L-HypSSChgQS-cyclohexylalaninol-(dAc)-VIN (XSSXQSX; non-natural residues; cyclised or stapled)
measured: 10 min
--
substance: Ac-SChgQSS(PIP)-(HCAP)-dAc-VIN (XXQSSX; non-natural residues; cyclised or stapled)
measured: 22 min
--
substance: Ac-SChgQSS-Sar-(HCAP)-dAc-VIN (XXQSSX; not fully specified; N-methyl; non-natural residues; cyclised or stapled)
measured: 13 min
--
substance: 4-des-Acetylvinblastine-23-(N-hydroxyacetyl-Abu-Ser-Ser-Chg-Gln-Ser-Pro-HCAP) amide (XSSXQSP; non-natural residues; cyclised or stapled)
measured: 11 min
--
substance: Ac-4-trans-L-HypSSChgQSP(HCAP)-VIN (XSSXQSX; non-natural residues; cyclised or stapled)
measured: 8 min

###

- testedTarget: enzymatically active free PSA (Homo sapiens, UniProt P07288)
- Construct: 50% cleavage of the noted oligopeptide-cytotoxic agent conjugates with enzymatically active free PSA; purchased York
- Sequence (P07288 25-261): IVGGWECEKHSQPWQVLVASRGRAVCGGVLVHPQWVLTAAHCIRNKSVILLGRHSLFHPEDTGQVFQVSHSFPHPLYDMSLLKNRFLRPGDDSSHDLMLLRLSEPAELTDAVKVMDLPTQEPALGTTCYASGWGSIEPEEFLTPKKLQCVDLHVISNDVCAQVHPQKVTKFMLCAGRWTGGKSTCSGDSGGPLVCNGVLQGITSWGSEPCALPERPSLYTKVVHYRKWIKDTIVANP
- protocol: Recognition/cleavage of oligopeptide-vinca drug conjugates by free PSA (HPLC)
- Type: biochemical
- conditionDetails: conjugate:PSA molar ratio 100 to 1; pH 7.4; acetate salt unless otherwise indicated; n > 1 value is an average
measurementName: Time to 50% Substrate Cleavage by York PSA (min)

substance: Ac-SSChgQ-SSP-(HCAP)-dAc-VIN (XSXQSSX; not fully specified; non-natural residues; cyclised or stapled)
endpointUnit: min
measured: 8

substance: Ac-AbuSSChgQ-SP-(HCAP)-(dAc)-VIN (XSSXQSP; non-natural residues; cyclised or stapled)
endpointUnit: min
measured: 18

substance: 4-des-Acetylvinblastine-23-(N-Acetyl-4-trans-L-Hyp-Ser-Ser-Chg-Gln-Ser-HCAP) Amide Acetate Salt
endpointUnit: min
measured: 15

###

- Test system: LNCap prostate tumor cells
- protocol: In vitro cytotoxicity, Alamar Blue assay, LNCaP cell kill in 72 hrs
- Type: cell-based
- conditionDetails: Table 5, 3 days, acetate salt of conjugate unless otherwise indicated, read-out: LNCaP Cell Kill in 72 HRS EC5O
pEC50: −log10 of the molar value.
So basically: pEC50 at 6 or higher? That is T. Lower than 6? That is F.

substance: 4-des-Acetylvinblastine-23-(N-Acetyl-Ser-Chg-Gln-Ser-Ser-Pro-HCAP) Amide Acetate Salt (SXQSSX; non-natural residues; cyclised or stapled) [Ac-SChgQ-SSP-(HCAP)-VIN]
testedTarget: LNCap prostate tumor cells
classification: F

substance: Ac-4-trans-L-HypSSChgQSP(HCAP)-VIN (XSSXQSX; non-natural residues; cyclised or stapled)
testedTarget: LNCap prostate tumor cells
classification: F

substance: Ac-AbuSSChgQ-SP-(HCAP)-(dAc)-VIN (XSSXQSP; non-natural residues; cyclised or stapled)
testedTarget: LNCap prostate tumor cells
classification: F

substance: Ac-SSChgQ-SSP-(HCAP)-dAc-VIN (XSXQSSX; not fully specified; non-natural residues; cyclised or stapled)
testedTarget: LNCap prostate tumor cells
classification: F

substance: Ac-4-trans-L-HypSSChgQS-cyclohexylalaninol-(dAc)-VIN (XSSXQSX; non-natural residues; cyclised or stapled)
testedTarget: LNCap prostate tumor cells
classification: T

substance: Ac-4-trans-L-Hyp-SSChgQ-SS-(HCAP)-(dAc)-VIN (XSSXQSS; non-natural residues; cyclised or stapled)
testedTarget: LNCap prostate tumor cells
classification: F
